Origin of measurements: patent US20230265116A1

test_target: EGFR L858R/T790M/C797S (BaF3-LTC cells) (Homo sapiens, UniProt P00533, C797S/L858R/T790M)
Construct: expressed in transfected cells; host or cells: BaF3
Sequence (P00533 25-1210 T790M/C797S/L858R): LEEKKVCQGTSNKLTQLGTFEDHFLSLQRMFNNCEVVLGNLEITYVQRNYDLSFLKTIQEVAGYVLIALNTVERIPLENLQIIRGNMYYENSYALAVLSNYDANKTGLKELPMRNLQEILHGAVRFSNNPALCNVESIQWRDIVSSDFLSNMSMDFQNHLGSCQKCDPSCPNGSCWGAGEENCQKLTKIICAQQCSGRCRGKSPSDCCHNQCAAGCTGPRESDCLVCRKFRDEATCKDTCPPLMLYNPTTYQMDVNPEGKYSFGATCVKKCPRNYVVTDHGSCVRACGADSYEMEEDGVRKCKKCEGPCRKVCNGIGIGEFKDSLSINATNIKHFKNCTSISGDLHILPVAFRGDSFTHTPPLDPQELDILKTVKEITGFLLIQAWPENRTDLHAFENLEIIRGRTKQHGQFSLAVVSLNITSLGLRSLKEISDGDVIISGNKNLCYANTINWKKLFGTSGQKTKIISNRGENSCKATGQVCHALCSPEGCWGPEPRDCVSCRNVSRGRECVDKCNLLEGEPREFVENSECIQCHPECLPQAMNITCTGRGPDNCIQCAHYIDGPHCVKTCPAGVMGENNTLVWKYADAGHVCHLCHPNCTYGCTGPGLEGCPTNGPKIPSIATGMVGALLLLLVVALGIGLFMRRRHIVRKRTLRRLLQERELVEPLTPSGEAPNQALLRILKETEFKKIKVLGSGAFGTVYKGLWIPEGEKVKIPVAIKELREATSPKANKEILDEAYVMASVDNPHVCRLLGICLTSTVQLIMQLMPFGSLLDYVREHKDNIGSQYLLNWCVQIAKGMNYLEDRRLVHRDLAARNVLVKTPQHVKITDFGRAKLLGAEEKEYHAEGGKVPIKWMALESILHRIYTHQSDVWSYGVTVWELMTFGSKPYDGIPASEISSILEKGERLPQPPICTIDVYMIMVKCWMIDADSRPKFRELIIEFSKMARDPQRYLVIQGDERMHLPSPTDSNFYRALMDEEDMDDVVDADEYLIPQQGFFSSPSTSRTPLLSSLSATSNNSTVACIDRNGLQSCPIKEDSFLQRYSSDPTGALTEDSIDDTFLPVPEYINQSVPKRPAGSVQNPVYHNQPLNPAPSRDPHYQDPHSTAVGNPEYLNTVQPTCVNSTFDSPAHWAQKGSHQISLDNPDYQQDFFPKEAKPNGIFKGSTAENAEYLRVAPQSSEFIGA
experiment_notes: EGFR degradation HTRF assay, BaF3-LTC cells
Assay type: cell-based
condition: BaF3-LTC cells; maximum percentage of inhibition (degradation); read-out: Dmax (%) BaF3-LTC
In this section, each of the compounds is paired with its reported Dmax.
Note: a bare number is incomplete; add the unit.

Use these answered entries as a reference point.
compound	measured_result
CCc1cc(Nc2ncc(Br)c(Nc3ccc4nc(C)ccc4c3P(C)(C)=O)n2)c(OC2CC2)cc1N1CCC(N2CCN(CC3CN(c4cccc5c4oc(=O)n5C4CCC(=O)NC4=O)C3)CC2)CC1 (stereo not shown)	87.4%
CCOc1cc(N2CCC(N3CCN(C[C@@H]4CCN(c5cccc6c5oc(=O)n6C5CCC(=O)NC5=O)C4)CC3)CC2)c(CC)cc1Nc1ncc(Br)c(Nc2ccc3c(=O)n(CC)ncc3c2P(C)(C)=O)n1 (stereo partly shown)	92%
CCc1cc(Nc2ncc(Br)c(Nc3ccc4c(=O)n(C)ncc4c3P(C)(C)=O)n2)c(OC)cc1N1CCC(N2CCN(C(=O)C3CN(c4cc(F)c(C5CCC(=O)NC5=O)c(F)c4)C3)CC2)CC1 (stereo not shown)	90.1%
CCOc1cc(N2CCC(N3CCN(CCc4c(C)ccc5c4n(C)c(=O)n5C4CCC(=O)NC4=O)CC3)CC2)c(CC)cc1Nc1ncc(Br)c(Nc2ccc3nc(CC)ccc3c2P(C)(C)=O)n1 (stereo not shown)	90%
CCc1ccc2c(P(C)(C)=O)c(Nc3nc(Nc4cc(CC)c(N5CCC(N6CCN(CCc7cccc8c7n(C7CC7)c(=O)n8C7CCC(=O)NC7=O)CC6)CC5)cc4OC)ncc3Br)ccc2n1 (stereo not shown)	92.3%

Could you tell me which Dmax is on file for CCOc1cc(N2CCC(N3CCN(C(=O)C4CN(c5cc(F)cc6c5n(C)c(=O)n6C5CCC(=O)NC5=O)C4)CC3)CC2)c(CC)cc1Nc1ncc(Br)c(Nc2ccc3nc(CC)ccc3c2P(C)(C)=O)n1 (stereo not shown) ?
90.8%

Could you tell me which Dmax is on file for CCc1cc(Nc2ncc(Br)c(Nc3ccc4nc(C)ccc4c3P(C)(C)=O)n2)c(OC)cc1N1CCC(N2CCN(C(=O)C3CN(c4cccc5c4C(C)(C)C(=O)N5C4CCC(=O)NC4=O)C3)CC2)CC1 (stereo not shown) ?
89.8%

Could you tell me which Dmax is on file for CCOc1cc(N2CCC(N3CCN(CCCc4cc(C)cc5c4oc(=O)n5C4CCC(=O)NC4=O)CC3)CC2)c(CC)cc1Nc1ncc(Br)c(Nc2ccc3nc(CC)ccc3c2P(C)(C)=O)n1 (stereo not shown) ?
92.3%

Could you tell me which Dmax is on file for CCOc1cc(N2CCC(N3CCN(CCc4ccc5c(c4)oc(=O)n5C4CCC(=O)NC4=O)CC3)CC2)c(CC)cc1Nc1ncc(Br)c(Nc2ccc3nc(C)c(F)cc3c2P(C)(C)=O)n1 (stereo not shown) ?
87.7%

Could you tell me which Dmax is on file for CCc1cc(Nc2ncc(Br)c(Nc3ccc4nc(C)ccc4c3P(C)(C)=O)n2)c(OC2CC2)cc1N1CCC(N2CCN(CCc3cc4oc(=O)n(C5CCC(=O)NC5=O)c4cc3F)CC2)CC1 (stereo not shown) ?
89.5%
